Target: furin, P09958;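 also: purified furin at 1:10 enzyme:substrate in 50 mM HEPES pH 7.5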
Sequence (P09958 whole entry): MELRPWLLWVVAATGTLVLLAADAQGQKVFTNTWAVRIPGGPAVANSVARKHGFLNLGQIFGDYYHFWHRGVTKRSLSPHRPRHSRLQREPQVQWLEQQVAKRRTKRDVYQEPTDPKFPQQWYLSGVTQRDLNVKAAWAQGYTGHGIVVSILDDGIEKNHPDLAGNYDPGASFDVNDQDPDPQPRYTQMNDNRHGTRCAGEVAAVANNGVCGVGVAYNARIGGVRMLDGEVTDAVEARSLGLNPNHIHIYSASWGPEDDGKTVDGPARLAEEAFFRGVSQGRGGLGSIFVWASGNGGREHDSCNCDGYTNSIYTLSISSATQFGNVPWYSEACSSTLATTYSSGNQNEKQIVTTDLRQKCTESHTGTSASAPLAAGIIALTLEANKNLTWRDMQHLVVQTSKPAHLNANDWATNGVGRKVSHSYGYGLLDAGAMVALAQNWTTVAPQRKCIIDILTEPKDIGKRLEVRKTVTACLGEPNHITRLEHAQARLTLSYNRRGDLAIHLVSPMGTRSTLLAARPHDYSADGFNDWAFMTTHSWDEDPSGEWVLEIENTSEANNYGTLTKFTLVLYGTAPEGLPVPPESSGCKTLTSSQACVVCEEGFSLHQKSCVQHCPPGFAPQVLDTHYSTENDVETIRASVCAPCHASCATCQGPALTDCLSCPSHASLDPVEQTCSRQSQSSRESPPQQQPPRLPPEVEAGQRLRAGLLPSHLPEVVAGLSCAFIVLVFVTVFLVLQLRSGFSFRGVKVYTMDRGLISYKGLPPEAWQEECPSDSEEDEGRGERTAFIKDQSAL
Protocol Details: furin cleavage Z-score vs untreated control; higher = more cleavage, active = 3.5 or more, inactive = 1 or less, 8 variable residues between constant flanks
Conditions: 7.5 min
The list shows a part of the results. The true hit rate is not given.
Observation Type: furin cleavage Z-score

If you can, please state the reported furin cleavage Z-score value of CAMCECSQHLAGNASASA [HC1700] .
0.0737 (inactive)

If you can, please state the reported furin cleavage Z-score value of CARDKRWVKYAGNASASA [FS-2652] .
0.63 (inactive)

If you can, please state the reported furin cleavage Z-score value of CALAAKLVALAGNASASA [HC862] .
1.87

If you can, please state the reported furin cleavage Z-score value of CAMHIRRKRIAGNASASA [FS-1235] .
8.17 (active)

If you can, please state the reported furin cleavage Z-score value of CARPLRSSERAGNASASA [FS-2056] .
-0.31 (inactive)

If you can, please state the reported furin cleavage Z-score value of CARDKRLAYSAGNASASA [FS-3217] .
-0.235 (inactive)

If you can, please state the reported furin cleavage Z-score value of CAALTGTYVYAGNASASA [HC632] .
1.19

If you can, please state the reported furin cleavage Z-score value of CAQAEAALENAGNASASA [HC532] .
0.288 (inactive)

If you can, please state the reported furin cleavage Z-score value of CADISRIKRGAGNASASA [FS-756] .
2.64

If you can, please state the reported furin cleavage Z-score value of CALILRSKRYAGNASASA [FS-1024] .
9.69 (active)

If you can, please state the reported furin cleavage Z-score value of CAVFDITKLLAGNASASA [HC603] .
0.928 (inactive)

If you can, please state the reported furin cleavage Z-score value of CAIGGAGNNTAGNASASA [HC446] .
0.332 (inactive)

If you can, please state the reported furin cleavage Z-score value of CARSKRREMQAGNASASA [FS-3207] .
0.975 (inactive)

If you can, please state the reported furin cleavage Z-score value of CALVSFLVFFAGNASASA [HC543] .
-1.85 (inactive)

If you can, please state the reported furin cleavage Z-score value of CAQPTRSKRRAGNASASA [FS-140] .
8.89 (active)

If you can, please state the reported furin cleavage Z-score value of CARDKRSALQAGNASASA [FS-1945] .
8.56 (active)

If you can, please state the reported furin cleavage Z-score value of CARAAICGKYAGNASASA [HC1629] .
-0.897 (inactive)

If you can, please state the reported furin cleavage Z-score value of CARKKRIKRRAGNASASA [FS-2266] .
13.1 (active)

If you can, please state the reported furin cleavage Z-score value of CAWMNRLIAFAGNASASA [HC1118] .
0.154 (inactive)

If you can, please state the reported furin cleavage Z-score value of CASLGRAKRAAGNASASA [FS-1569] .
5.19 (active)

If you can, please state the reported furin cleavage Z-score value of CARSKRRKYVAGNASASA [FS-3170] .
-1.22 (inactive)

If you can, please state the reported furin cleavage Z-score value of CARSKRAAPAAGNASASA [FS-2603] .
11.1 (active)

If you can, please state the reported furin cleavage Z-score value of CALAVFGPLWAGNASASA [HC607] .
0.672 (inactive)

If you can, please state the reported furin cleavage Z-score value of CARSKKDFEAAGNASASA [FS-2458] .
0.38 (inactive)

If you can, please state the reported furin cleavage Z-score value of CARTKRELENAGNASASA [FS-1935] .
14.2 (active)

If you can, please state the reported furin cleavage Z-score value of CARKKRLENRAGNASASA [FS-2214] .
1.32

If you can, please state the reported furin cleavage Z-score value of CARSYRYALQAGNASASA [FS-3101] .
2.16
